- Tested on: Saccharomyces cerevisiae
- ASSAY COMMENT: Antifungal activity against Saccharomyces cerevisiae by NCCLS method
- Assay type: functional
log10 MIC values by entry
Values are log10 of MIC in µg/mL.

Before answering, review these 5 worked examples.
1) CCOC(=O)c1cn(CC(O)Cn2cncn2)c2cc(C(F)(F)F)ccc2c1=O (racemic)
1.81
2) CCOC(=O)c1cn(CC(O)Cn2cncn2)c2ccc(C)cc2c1=O (racemic)
1.81
3) OC(Cn1cncn1)(Cn1cncn1)c1ccc(F)cc1F
1.20
4) O=C(O)c1cn(CC(O)Cn2cncn2)c2cc(Cl)c(F)cc2c1=O (stereo not given)
2.41
5) CCOC(=O)c1cn(CC(O)Cn2cncn2)c2c(Cl)cc(Cl)cc2c1=O (racemic)
1.51

State log10 MIC on Saccharomyces cerevisiae. Entry: CCOC(=O)c1cn(CC2CO2)c2c(Cl)cc(Cl)cc2c1=O (racemic) 0.90

Under Saccharomyces cerevisiae, report log10 MIC for O=C(O)c1cn(CC(O)Cn2cncn2)c2c(F)cc(F)cc2c1=O (stereo not given) 2.71

Under Saccharomyces cerevisiae, report log10 MIC for O=C(O)c1cn(CC(O)Cn2cncn2)c2cc(C(F)(F)F)ccc2c1=O (stereo not given) 2.41

----------
Overview of reported MIC across a group of compounds:
- System: Saccharomyces cerevisiae
- ASSAY COMMENT: Antifungal activity against Saccharomyces cerevisiae by NCCLS method
- Type: functional

// known answers, use as guide
1. CCOC(=O)c1cn(CC(O)Cn2cncn2)c2c(F)cccc2c1=O (racemic)
32 µg/mL
2. O=C(O)c1cn(CC(O)Cn2cncn2)c2ccc(F)cc2c1=O (stereo not drawn)
512 µg/mL

Now let's try a different one.
Answer with MIC of O=C(O)c1cn(CC(O)Cn2cncn2)c2c(F)cccc2c1=O (stereo not drawn) measured for Saccharomyces cerevisiae. 256 µg/mL

----------
- Test system: Saccharomyces cerevisiae
- ASSAY COMMENT: Antifungal activity against Saccharomyces cerevisiae by NCCLS method
- Format: functional
Recorded log10 of MIC for the following compounds
Annotation: log10 of MIC, µg/mL basis.

1. CCOC(=O)c1cn(CC(O)Cn2cncn2)c2ccc(F)cc2c1=O (racemic)
2.71

Give recorded log10 of MIC. O=C(O)c1cn(CC(O)Cn2cncn2)c2c(Cl)cc(Cl)cc2c1=O (stereo not given) 2.11

Supply reported log10 of MIC belonging to this compound: CCOC(=O)c1cn(CC(O)Cn2cncn2)c2c(F)cc(F)cc2c1=O (racemic) 2.71

Answer with the recorded log10 of MIC of CCOC(=O)c1cn(CC2CO2)c2cc(C(F)(F)F)ccc2c1=O (racemic) only. 0.90

Give me measured log10 of MIC, please, for this compound: CCOC(=O)c1cn(CC2CO2)c2ccc(C)cc2c1=O (racemic) 1.81

Report log10 of MIC for CCOC(=O)c1cn(CC2CO2)c2c(F)cccc2c1=O (racemic) 0.60

Supply measured log10 of MIC of CCOC(=O)c1cn(CC2CO2)c2ccc(F)cc2c1=O (racemic) in your reply. 0.30

Output log10 of MIC of CCOC(=O)c1cn(CC2CO2)c2c(F)cc(F)cc2c1=O (racemic) 1.81

Look up and state reported log10 of MIC for CCOC(=O)c1cn(CC(O)Cn2cncn2)c2cc(Cl)c(F)cc2c1=O (racemic) 2.71

Find the measured log10 of MIC of Cc1ccc2c(c1)c(=O)c(C(=O)O)cn2CC(O)Cn1cncn1 (stereo not given) and report it. 0.60
